System: BT-549 breast
Experiment: NCI-60 one-dose screen, 48 h (100 = growth as untreated, 0 = no growth, -100 = all killed)
Conditions: 10 µM unless noted
Compounds without any hit were thinned out: in the full panel of roughly 83,000, 20% have a hit.
Assign class by growth: not lower than 80% means TRUE; lower than 80% means FALSE.

Consider the worked cases shown below.
{"columns": ["Molecule", "Study Target", "Discrete Label"],
 "data": [
  ["CNC(=O)O/N=C(\\SC)C(=O)N(C)C", "BT-549 breast", "TRUE"],
  ["C[C@]12CC[C@@H](OC(=O)N(CCCl)N=O)C[C@@H]1CC[C@@H]1[C@@H]2CC[C@]2(C)C(=O)CC[C@@H]12", "BT-549 breast", "FALSE"]
]}

Query: Kindly determine if growth recorded for C[C@@H]1C/C=C\C(=O)O[C@H](/C=C/C#C/C=C/C(C)(C)[C@@H](O)c2cccc(O)c2Br)[C@@H](C)/C=C/[C@H](C)C[C@H](OC(N)=O)C1 is above or exactly 80%.
Result: FALSE

Query: Kindly determine if growth recorded for C[C@]12CC[C@H]3[C@@H](C[C@@H]4SC(Nc5ccccc5)=N[C@@]45C/C(=N/O)CC[C@]35C)[C@@H]1CCC2=O is above or exactly 80%.
Result: FALSE
